EXPERIMENTAL_DETAILS: Metabolic stability in mouse hepatocytes assessed as intrinsic clearance at 1 uM incubated for 90 mins by LC/MS/MS analysis
Assay type: ADME, cell-based, Hepatocyte
What CLH was measured for each of the following?
Give bare numbers, in µL/min/mg.

O=C(Nc1nc2cccc(C3CCC4(CC3)CN(C(=O)[C@@H]3CC3(F)F)C4)n2n1)C1CC1; 9.1

Record CLH per entry; entries follow.
1. O=C(Nc1nc2cccc(C3CCC4(CC3)CCN(C(=O)[C@@H]3CC3(F)F)C4)n2n1)C1CC1 (some centres not stated)
2. O=C(Nc1nc2cccc(C3CCC(NC(=O)C4(F)CC4)CC3)n2n1)C1CC1 (configuration not stated)
3. O=C(Nc1nc2cccc(-c3ccc(CN4CCS(=O)(=O)CC4)cc3)n2n1)C1CC1
4. O=C(Nc1nc2cccc([C@H]3CC[C@@H](NC(=O)[C@@H]4CC4(F)F)CC3)n2n1)C1CC1
5. O=C(Nc1nc2cccc(C3CCC4(CC3)CCN(C(=O)[C@@H]3CC3(F)F)CC4)n2n1)C1CC1

1: 134.3; 2: 15.3; 3: 22.3; 4: 34.2; 5: 40.6

* * *

EXPERIMENTAL_DETAILS: Clearance in beagle dog at 0.2 mg/kg, iv measured for 24 hrs by LC-MS/MS analysis
Assay type: ADME, organism-based, Canis lupus familiaris
EXPERIMENTAL_CONTEXT: in vivo
ENDPOINT: clearance
Output should be the measured figure followed by the unit it is expressed in.

For the molecule O=C(Nc1nc2cccc(C3CCC4(CC3)CN(C(=O)[C@@H]3CC3(F)F)C4)n2n1)C1CC1 , give its reported clearance.
5.73 mL/min/kg

* * *

What fraction unbound at 4 h, 2 µM was measured for each of the following?
EXPERIMENTAL_DETAILS: Plasma protein binding in mouse assessed as unbound fraction at 2 uM incubated for 4 hrs by LC/MS/MS based balanced dialysis method
Give bare numbers.

O=C(Nc1nc2cccc([C@H]3CC[C@@H](NC(=O)[C@@H]4CC4(F)F)CC3)n2n1)C1CC1; 0.148
O=C(Nc1nc2cccc(C3CCC4(CC3)CN(C(=O)[C@@H]3CC3(F)F)C4)n2n1)C1CC1; 0.259
O=C(Nc1nc2cccc(-c3ccc(CN4CCS(=O)(=O)CC4)cc3)n2n1)C1CC1 [FILGOTINIB]; 0.316
O=C(Nc1nc2cccc(C3CCC(NC(=O)C4(F)CC4)CC3)n2n1)C1CC1 (configuration not stated); 0.28
N#CCC(=O)N1CC2(CCC(c3cccc4nc(NC(=O)C5CC5)nn34)CC2)C1; 0.479
O=C(Nc1nc2cccc(C3CCC4(CC3)CCN(C(=O)[C@@H]3CC3(F)F)CC4)n2n1)C1CC1; 0.057

For the molecule O=C(Nc1nc2cccc(C3CCC4(CC3)CCN(C(=O)[C@@H]3CC3(F)F)C4)n2n1)C1CC1 (some centres not stated) , give its reported fraction unbound at 4 h, 2 µM.
0.112

* * *

Species: Homo sapiens
EXPERIMENTAL_DETAILS: Selectivity index, ratio of IC50 for inhibition of recombinant human TYK2 to IC50 for inhibition of recombinant human JAK1
ENDPOINT: Ratio IC50
Answers are plain numbers.

Known results for compounds:
O=C(Nc1nc2cccc(C3CCC4(CC3)CCN(C(=O)[C@@H]3CC3(F)F)C4)n2n1)C1CC1 (stereo not given in full); 2.2
O=C(Nc1nc2cccc(C3CCC4(CC3)CCN(C(=O)[C@@H]3CC3(F)F)CC4)n2n1)C1CC1; 8.7

Record Ratio IC50 per entry; entries follow.
1. O=C(Nc1nc2cccc(C3CCC4(CC3)CCN(C(=O)CC(F)(F)F)CC4)n2n1)C1CC1
2. O=C(Nc1nc2cccc(C3=CCN(C(=O)C4(F)CC4)C3)n2n1)C1CC1

1: 2.9; 2: 5.4

For the compound O=C(Nc1nc2cccc(C3CCC(NC(=O)C4(F)CC4)CC3)n2n1)C1CC1 (stereo not given) , give its reported Ratio IC50.
4.1

* * *

EXPERIMENTAL_DETAILS: Clearance in Sprague-Dawley rat at 1 mg/kg, iv measured for 24 hrs by LC-MS/MS analysis
Assay type: ADME, organism-based
EXPERIMENTAL_CONTEXT: in vivo
ENDPOINT: clearance (L/h/kg)
Give bare numbers, in L/h/kg.

For the compound O=C(Nc1nc2cccc(C3CCC4(CC3)CN(C(=O)[C@@H]3CC3(F)F)C4)n2n1)C1CC1 , give its reported clearance.
0.63

* * *

What Ratio IC50 was measured for each of the following?
Species: Homo sapiens
EXPERIMENTAL_DETAILS: Selectivity index, ratio of IC50 for inhibition of recombinant human JAK2 to IC50 for inhibition of recombinant human JAK1
One number for each entry.

Known results for compounds:
O=C(Nc1nc2cccc(C3CCC4(CC3)CCN(C(=O)[C@@H]3CC3(F)F)C4)n2n1)C1CC1 (some centres undefined); 10.5
O=C(Nc1nc2cccc([C@H]3CC[C@H](NC(=O)[C@H]4CC4(F)F)CC3)n2n1)C1CC1; 23.7

Record Ratio IC50 per entry; entries follow.
1. O=C(Nc1nc2cccc([C@@H]3CCC4(CCN(C(=O)[C@@H]5CC5(F)F)CC4)C3)n2n1)C1CC1
2. O=C(Nc1nc2cccc(C3=CC[C@H](NC(=O)[C@@H]4CC4(F)F)CC3)n2n1)C1CC1

[5, 11.8]

* * *

What Cmax at 24 h was measured for each of the following?
EXPERIMENTAL_DETAILS: in vivo
EXPERIMENTAL_CONTEXT: C57BL/6, mouse, po, 15 mg/kg
One number for each entry, in µM.

O=C(Nc1nc2cccc([C@H]3CC[C@@H](NC(=O)[C@@H]4CC4(F)F)CC3)n2n1)C1CC1; 25.7

Consider the record given below.
For the compound O=C(Nc1nc2cccc(C3CCC4(CC3)CCN(C(=O)[C@@H]3CC3(F)F)CC4)n2n1)C1CC1 , give its reported Cmax at 24 h.
7.38

* * *

What pIC50 was measured for each of the following?
TEST_TARGET: Tyrosine-protein kinase JAK3 (Homo sapiens)
Sequence (P52333 whole entry): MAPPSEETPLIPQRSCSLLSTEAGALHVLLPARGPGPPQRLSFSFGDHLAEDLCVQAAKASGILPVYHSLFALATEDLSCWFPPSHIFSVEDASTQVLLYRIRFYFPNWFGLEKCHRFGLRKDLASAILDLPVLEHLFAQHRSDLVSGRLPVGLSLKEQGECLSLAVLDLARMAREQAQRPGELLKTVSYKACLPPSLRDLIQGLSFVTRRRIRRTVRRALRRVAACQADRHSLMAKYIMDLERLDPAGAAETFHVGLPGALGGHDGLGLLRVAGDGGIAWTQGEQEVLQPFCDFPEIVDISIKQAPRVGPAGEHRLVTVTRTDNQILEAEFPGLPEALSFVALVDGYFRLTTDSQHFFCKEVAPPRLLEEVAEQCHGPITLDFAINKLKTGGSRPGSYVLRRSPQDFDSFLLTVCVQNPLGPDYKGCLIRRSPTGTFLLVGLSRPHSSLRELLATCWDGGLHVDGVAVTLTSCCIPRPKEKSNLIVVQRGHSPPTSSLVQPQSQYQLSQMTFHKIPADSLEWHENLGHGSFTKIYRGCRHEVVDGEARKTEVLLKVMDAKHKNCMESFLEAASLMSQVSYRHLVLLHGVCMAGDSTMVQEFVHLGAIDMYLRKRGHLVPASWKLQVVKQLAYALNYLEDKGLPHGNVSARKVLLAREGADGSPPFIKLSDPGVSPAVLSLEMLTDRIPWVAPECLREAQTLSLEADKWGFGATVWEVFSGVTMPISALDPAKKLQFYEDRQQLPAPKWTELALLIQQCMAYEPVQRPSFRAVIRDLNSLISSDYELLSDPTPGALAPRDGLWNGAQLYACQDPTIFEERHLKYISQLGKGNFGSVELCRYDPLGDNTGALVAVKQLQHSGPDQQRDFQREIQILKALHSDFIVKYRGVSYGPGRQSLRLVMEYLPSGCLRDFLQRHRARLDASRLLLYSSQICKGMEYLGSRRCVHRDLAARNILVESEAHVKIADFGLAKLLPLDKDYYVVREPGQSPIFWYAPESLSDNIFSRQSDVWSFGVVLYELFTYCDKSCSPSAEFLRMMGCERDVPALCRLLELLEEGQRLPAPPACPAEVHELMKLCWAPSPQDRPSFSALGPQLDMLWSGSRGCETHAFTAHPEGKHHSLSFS
EXPERIMENTAL_DETAILS: Inhibition of recombinant human JAK3 using GGEEEEYFELVKKKK as substrate incubated for 40 mins in presence of Mg/ATP mixture by [gamma p33]-ATP based scintillation counting method
Give bare numbers, as −log10 of the molar value.

O=C(Nc1nc2cccc(C3CCC4(CC3)CCN(C(=O)[C@@H]3CC3(F)F)CC4)n2n1)C1CC1; 6.00

Consider the record given below.
Tell me pIC50 of O=C(Nc1nc2cccc(C3CCC4(CC3)CCN(C(=O)[C@H]3CC3(F)F)C4)n2n1)C1CC1 (stereo not given in full) when tested on Tyrosine-protein kinase JAK3 (Homo sapiens).
5.13

* * *

EXPERIMENTAL_DETAILS: Elimination half life in C57BL/6 mouse at 15 mg/kg, po measured for 24 hrs by LC/MS/MS analysis
Format: ADME, organism-based
EXPERIMENTAL_CONTEXT: in vivo, read-out: beta t1/2 (converted)
What half-life was measured for each of the following?
Numbers only, in h.

O=C(Nc1nc2cccc(C3CCC4(CC3)CCN(C(=O)[C@@H]3CC3(F)F)CC4)n2n1)C1CC1; 4.74
O=C(Nc1nc2cccc([C@H]3CC[C@@H](NC(=O)[C@@H]4CC4(F)F)CC3)n2n1)C1CC1; 1.5

For the compound O=C(Nc1nc2cccc(C3CCC4(CC3)CN(C(=O)[C@@H]3CC3(F)F)C4)n2n1)C1CC1 , give its reported half-life.
2.01

* * *

TEST_TARGET: Tyrosine-protein kinase JAK1 (Homo sapiens, UniProt P23458)
Sequence (P23458 whole entry): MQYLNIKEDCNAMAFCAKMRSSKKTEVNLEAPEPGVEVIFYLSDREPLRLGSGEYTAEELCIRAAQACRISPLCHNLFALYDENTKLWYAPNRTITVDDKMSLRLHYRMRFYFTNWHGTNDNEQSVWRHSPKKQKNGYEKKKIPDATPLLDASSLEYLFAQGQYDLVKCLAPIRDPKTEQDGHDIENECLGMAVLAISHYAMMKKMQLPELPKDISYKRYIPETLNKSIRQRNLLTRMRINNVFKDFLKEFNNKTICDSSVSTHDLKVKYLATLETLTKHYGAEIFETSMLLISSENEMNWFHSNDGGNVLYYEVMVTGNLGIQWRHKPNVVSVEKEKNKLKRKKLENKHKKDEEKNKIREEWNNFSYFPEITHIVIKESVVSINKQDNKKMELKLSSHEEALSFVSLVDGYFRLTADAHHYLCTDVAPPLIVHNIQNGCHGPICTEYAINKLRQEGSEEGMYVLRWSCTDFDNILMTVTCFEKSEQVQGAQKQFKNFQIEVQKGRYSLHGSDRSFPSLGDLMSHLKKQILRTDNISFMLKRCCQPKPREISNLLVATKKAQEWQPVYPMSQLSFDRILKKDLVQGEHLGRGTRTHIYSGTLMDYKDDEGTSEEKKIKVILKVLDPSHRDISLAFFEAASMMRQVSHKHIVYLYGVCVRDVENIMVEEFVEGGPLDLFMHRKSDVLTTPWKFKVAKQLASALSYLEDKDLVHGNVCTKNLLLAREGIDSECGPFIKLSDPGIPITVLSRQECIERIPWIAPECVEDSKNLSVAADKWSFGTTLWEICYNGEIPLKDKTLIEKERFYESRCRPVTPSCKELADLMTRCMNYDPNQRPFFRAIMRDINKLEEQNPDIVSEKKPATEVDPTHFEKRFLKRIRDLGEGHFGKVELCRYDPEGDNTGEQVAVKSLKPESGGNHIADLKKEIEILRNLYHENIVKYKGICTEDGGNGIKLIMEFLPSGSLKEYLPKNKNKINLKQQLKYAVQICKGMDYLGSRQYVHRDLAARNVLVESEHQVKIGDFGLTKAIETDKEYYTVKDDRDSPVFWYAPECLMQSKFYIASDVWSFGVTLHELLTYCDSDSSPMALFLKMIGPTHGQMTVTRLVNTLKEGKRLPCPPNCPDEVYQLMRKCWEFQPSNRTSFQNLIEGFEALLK
EXPERIMENTAL_DETAILS: Inhibition of recombinant human JAK1 using MGEEPLYWSFPAKKK as substrate incubated for 40 mins in presence of Mg/ATP mixture by [gamma p33]-ATP based scintillation counting method
What pIC50 was measured for each of the following?
Numbers only, as −log10 of the molar value.

Known results for compounds:
O=C(Nc1nc2cccc([C@H]3CCC4(CCN(C(=O)[C@@H]5CC5(F)F)CC4)C3)n2n1)C1CC1; 7.20
O=C(Nc1nc2cccc([C@H]3CC[C@@H](NC(=O)[C@@H]4CC4(F)F)CC3)n2n1)C1CC1; 8.70

Record pIC50 per entry; entries follow.
1. CC(C)(C#N)C(=O)N1CC2(CCC(c3cccc4nc(NC(=O)C5CC5)nn34)CC2)C1
2. N#CCC(=O)N1CCC2(CCC(c3cccc4nc(NC(=O)C5CC5)nn34)CC2)C1 (centres undefined)
3. N#CCCN1CC2(CCC(c3cccc4nc(NC(=O)C5CC5)nn34)CC2)C1
4. O=C(Nc1nc2cccc(C3CCC4(CC3)CCN(C(=O)[C@@H]3CC3(F)F)CC4)n2n1)C1CC1
5. O=C(Nc1nc2cccc(C3CCC4(CC3)CCN(C(=O)CC(F)(F)F)C4)n2n1)C1CC1 (centres undefined)
6. O=C(Nc1nc2cccc([C@H]3CC[C@H](NC(=O)[C@@H]4CC4(F)F)CC3)n2n1)C1CC1

[7.70, 7.17, 7.19, 8.52, 6.88, 6.74]

For the compound O=C(Nc1nc2cccc([C@@H]3CCC4(C3)CN(C(=O)[C@@H]3CC3(F)F)C4)n2n1)C1CC1 , give its reported pIC50.
6.75

Values compiled from ChEMBL document CHEMBL5150077.
